Assign solubility (mole fraction) to each entry below.
# recorded conditions: in n-octanol, 293.2 K

I'd like to know its solubility (mole fraction). The compound in question is CC(O)Cc1nsc(Nc2ccc(Cl)cc2)n1 (stereo unspecified)
0.0187

Cc1cccc(Nc2nc(CC(C)O)ns2)c1 (stereo unspecified) ?
0.0266

Can you handle Cc1ccc(Nc2nc(CC(C)O)ns2)cc1Cl (stereo unspecified) next?
0.0121

And then Cc1ccc(Cl)cc1Nc1nc(CC(C)O)ns1 (stereo unspecified) , what is it?
0.0488

Follow-up item: COc1ccc(Nc2nc(CC(C)O)ns2)cc1 (stereo unspecified)
0.0466

Another compound to look at: CC(O)Cc1nsc(Nc2cccc(Cl)c2)n1 (stereo unspecified)
0.0546

Reference source: BigSolDB 2.1
